The origin of these recorded values is ChEMBL document CHEMBL1155848.

Experiment: Plasma concentration in mouse at 30 mg/kg, po after 12 hrs
Type: ADME, organism-based
Design: dose 30 mg/kg, route oral
READOUT_TYPE: concentration at 12 h (ng/mL)
# value in ng/mL; strip the unit string

[in] Consider the molecule `Cc1ccc(Nc2nccc(N(C)c3ccc4c(C)n(C)nc4c3)n2)cc1S(N)(=O)=O` . State its measured concentration at 12 h.
[out] 24800

----------
Experiment: AUC (0 to infinity) in mouse at 100 mg/kg, po
Type: ADME, organism-based
Parameters: time infinity, dose 100 mg/kg, route oral
Details: plasma
READOUT_TYPE: AUC(0-inf) (µg·h/mL)
# value in µg·h/mL; strip the unit string

[in] Consider the compound Cc1ccc(Nc2nccc(N(C)c3ccc4c(C)n(C)nc4c3)n2)cc1S(N)(=O)=O [PAZOPANIB] . State its measured AUC(0-inf).
[out] 1140
